Tested on: SR leukemia
experimental.details: NCI tumour cell line growth inhibition, 48 h; in the data active = GI50 below about 0.43 µM; inactive = the rest
Possible outcomes: 1.0 for active, 0.0 for inactive

{"columns": ["molecule", "label.value"],
 "data": [
  ["CC(C)(C)N1CC(OC(N)=O)C1", 0.0],
  ["COc1ccccc1N1CCN(C(=O)c2ccc(NS(=O)(=O)c3cccc4cccnc34)cc2)CC1", 0.0],
  ["O=C1CCC2=C3C4CCCCC4C(=O)C4CCCC(OC2C1)C34 (stereo unspecified)", 1.0],
  ["COC(=O)c1cc2c3c(cc(O)c2[nH]1)N(C(=O)C1Cc2cc(OC)c(OC)c(OC)c2N1)CC3CCl (stereo unspecified)", 1.0],
  ["CCC1CCCCN1C(=S)N/N=C(\\C)c1ccccn1 (stereo unspecified)", 1.0],
  ["CCCCNC(=O)Oc1ccc2c(=O)c3sc4c(=O)c5ccccc5c(=O)c4c3c(=O)c2c1", 0.0]
]}

###

Measured TGI values are reported for all entries that follow.
Test system: MDA-MB-231 breast
experimental.details: NCI tumour cell line growth inhibition, 48 h
endpoint.label: TGI (µM)

{"columns": ["cpd.smiles", "target.of.assay", "endpoint.label", "prefix.operator", "measured.number"],
 "data": [
  ["COc1cc([C@@H]2c3cc4c(cc3[C@H](OC(C)=O)[C@H]3COC(=O)[C@H]23)OCO4)cc(OC)c1OC", "MDA-MB-231 breast", "TGI", ">", 100],
  ["CSc1ccc(/C=C2\\N=C(c3ccccc3)N(c3nc4c(Cl)cc(Cl)cc4s3)C2=O)cc1", "MDA-MB-231 breast", "TGI", "=", 62.5],
  ["O=c1[nH]c(Nc2cccc(Br)c2)nc2nc[nH]c12", "MDA-MB-231 breast", "TGI", ">", 100],
  ["CCCCNC(=O)Oc1ccc2c(=O)c3sc4c(=O)c5ccccc5c(=O)c4c3c(=O)c2c1", "MDA-MB-231 breast", "TGI", "=", 5.91],
  ["CCOC(=O)/C=C(\\N=P(c1ccccc1)(c1ccccc1)c1ccccc1)C(F)(F)C(F)(F)C(F)(F)C(F)(F)C(F)(F)F", "MDA-MB-231 breast", "TGI", ">", 100],
  ["COc1cc(C)[nH]c(=O)c1CN1CCc2c(Cl)cc([C@H](OC)C3COC3)c(Cl)c2C1=O", "MDA-MB-231 breast", "TGI", ">", 100],
  ["O=C(Nc1ccc(Cl)cc1)c1cc2cc(F)ccc2cc1O", "MDA-MB-231 breast", "TGI", "=", 5.29],
  ["CCOC(=O)C(C)(C)/C=C\\C(Cl)=C(Cl)Cl", "MDA-MB-231 breast", "TGI", ">", 100],
  ["O=S(=O)(NCCCNc1cc(-c2cn(-c3ccccc3)nc2-c2cccc(O)c2)ccn1)c1cccc2ccccc12", "MDA-MB-231 breast", "TGI", "=", 6.52]
]}

###

Tested on: SNB-78 CNS
experimental.details: NCI tumour cell line growth inhibition, 48 h

{"columns": ["molecule", "target.of.assay", "prefix.operator", "TGI (µM)"],
 "data": [
  ["COc1cccc2c1C(=O)c1c(O)c3c(c(O)c1C2=O)C[C@@](O)(/C(C)=N/NC(=O)c1ccccc1)C[C@@H]3OC1CC(N)C(O)C(C)O1 (stereo not given in full)", "SNB-78 CNS", "=", 6.1],
  ["CC1=C(/C=C/C2=CC(=C\\C(=O)O)/CC(C3=C(C)CCCC3(C)C)C2)C(C)(C)CCC1 (stereo not given)", "SNB-78 CNS", "=", 41.2],
  ["O=C(O)CCSC(=O)Nc1cccc([N+](=O)[O-])c1", "SNB-78 CNS", ">", 100],
  ["O=C(COc1ccc(Cl)cc1)N1N=C(c2ccc([N+](=O)[O-])o2)CC1(O)c1ccccc1 (stereo not given)", "SNB-78 CNS", "=", 37.6],
  ["C=CCCC(C)N(C(=O)OC(C)(C)C)S(=O)(=O)c1ccc(C)cc1 (stereo not given)", "SNB-78 CNS", ">", 100],
  ["NC(Cc1c[nH]c2ccccc12)C(=O)O (stereo not given)", "SNB-78 CNS", ">", 300],
  ["c1ccc2c(c1)nnn2CNc1ccc(N2CCOCC2)cc1", "SNB-78 CNS", ">", 100],
  ["O=C1NC(=O)C(=O)C(c2nc3ccccc3s2)C1=O", "SNB-78 CNS", ">", 100],
  ["COc1cc([C@@H]2c3cc4c(cc3[C@@H](NCc3ccc(C#N)cc3)C3COC(=O)[C@@H]32)OCO4)cc(OC)c1O (stereo not given in full)", "SNB-78 CNS", "=", 53.2],
  ["C[C@@H](NC1CCC[C@@H]1O)c1ccccc1 (stereo not given in full)", "SNB-78 CNS", ">", 100]
]}

These data points were gathered from PubChem BioAssay (NCI).
